# Test system: Human immunodeficiency virus 1
# Protocol: Antiviral activity against Human immunodeficiency virus 1 HXB2 harboring reverse transcriptase K103N and Y181C mutant infected in human MT4 cells stably transformed with HIV1 LTR-EGFP after 3 days by fluorescence microscopic analysis
# Type: functional, organism-based
# Study Conditions: Human immunodeficiency virus 1, HXB2, MT4, 72 h
pEC50: −log10 of the molar value.
Attribute Measured: pEC50

Consider the following illustrative entries.
CC(=O)Nc1ccnc(SC(F)(F)c2nc3ccccc3o2)n1	< 4.01
Nc1ccnc(SC(F)(F)c2nc3c(Cl)cccc3o2)n1	< 4.55
COCc1ccnc(SC(F)(F)c2nc3ccccc3o2)n1	< 4.01
Cc1cccc2oc(C(F)(F)Sc3nccc(N)n3)nc12	< 4.70
Cc1ccnc(SC(F)(F)c2nc3c(C)cccc3o2)n1	< 4.01

Request: Give the measured pEC50 of `Cc1ccnc(S(=O)(=O)C(F)(F)c2nc3ccccc3o2)n1` .
Response: < 4.21

Request: Record request: pEC50 value, item `CC(C)c1ccnc(SC(F)(F)c2nc3ccccc3o2)n1`
Response: < 4.01

Request: Report pEC50 for `Nc1ccnc(SC(F)(F)c2nc3ccccc3o2)n1` please.
Response: < 4.48
